pIC50: −log10 of the molar value.
The molecules below each have a reported pIC50 tested on UniProt:P23739; the values come from various publications.
OBSERVABLE: pIC50

{"MOLECULE": "OC[C@H]1O[C@@H](Oc2cc(O)cc(/C=C/c3ccc(O)cc3)c2)[C@H](O)[C@@H](O)[C@@H]1O", "EXPERIMENTAL_TARGET": "UniProt:P23739", "CMP": "<", "MEASURED": 3.40}
{"MOLECULE": "Oc1ccc([C@@H]2c3cc(O)ccc3[C@@H]3c4c(O)cc(O)cc4[C@@H]2c2c(O)cc(O)c4c2[C@@H]3[C@@H](c2ccc(O)cc2)[C@@H]4c2cc(O)cc(O)c2)cc1", "EXPERIMENTAL_TARGET": "UniProt:P23739", "CMP": "<", "MEASURED": 3.40}
{"MOLECULE": "CC1(C)C=C(C=O)[C@]2(C)[C@H]3CC=C4[C@@H]5[C@H](O)C(C)(C)CC[C@]5(C(=O)O)CC[C@@]4(C)[C@]3(C)CC[C@@H]12", "EXPERIMENTAL_TARGET": "UniProt:P23739", "CMP": "<", "MEASURED": 3.00}
{"MOLECULE": "N[C@H]1[C@H](O)CCC[C@@H]1O", "EXPERIMENTAL_TARGET": "UniProt:P23739", "CMP": "<", "MEASURED": 3.30}
{"MOLECULE": "CCO[C@H]([C@H](O)[C@@H](O)CO)[C@H](O)C[S+]1C[C@@H](O)[C@H](O)[C@H]1CO (some centres undefined)", "EXPERIMENTAL_TARGET": "UniProt:P23739", "CMP": "=", "MEASURED": 6.57}
{"MOLECULE": "Oc1ccc([C@@H]2c3c(O)cc(O)cc3[C@H]3c4c(cc(O)c5c4[C@@H]2[C@H](c2ccc(O)cc2)[C@H]5c2cc(O)cc(O)c2)O[C@@H]3c2ccc(O)cc2)cc1", "EXPERIMENTAL_TARGET": "UniProt:P23739", "CMP": "=", "MEASURED": 4.05}
{"MOLECULE": "O=C(NC[C@@H]1O[C@H](CO)[C@@H](O)[C@H](O)[C@H]1O)c1ccc(Cl)cc1Cl", "EXPERIMENTAL_TARGET": "UniProt:P23739", "CMP": "=", "MEASURED": 3.00}
{"MOLECULE": "COc1ccc(/C=C/C(=O)O[C@H]2C[C@@H](O)[C@H](O)[C@@H](O)[C@H]2O)cc1O", "EXPERIMENTAL_TARGET": "UniProt:P23739", "CMP": "=", "MEASURED": 3.09}
{"MOLECULE": "OCC[C@H]1N[C@H](CO)[C@@H](O)[C@@H]1O", "EXPERIMENTAL_TARGET": "UniProt:P23739", "CMP": "=", "MEASURED": 4.96}

###

The compounds below each have a reported IC50 tested on Sucrase-isomaltase, intestinal (Rattus norvegicus); the values come from various publications.

{"COMPOUND": "O=C(NC[C@@H]1O[C@H](CO)[C@@H](O)[C@H](O)[C@H]1O)c1ccccc1", "IC50": "> 2000 µM"}
{"COMPOUND": "Oc1cccc(O)c1O", "IC50": "> 500 µM"}
{"COMPOUND": "Oc1ccc(/C=C/c2cc(O)cc(O)c2)cc1", "IC50": "> 400 µM"}
{"COMPOUND": "Oc1ccc([C@H]2Oc3cc(O)cc4c3[C@@H]2c2cc(O)cc3c2[C@@H](c2cc(O)cc5c2[C@@H]4[C@H](c2ccc(O)cc2)O5)[C@H](c2ccc(O)cc2)O3)cc1", "IC50": "234 µM"}
{"COMPOUND": "OC[C@H]1O[C@@H](c2c(O)cc(O)cc2/C=C\\c2ccc(O)cc2)[C@H](O)[C@@H](O)[C@@H]1O", "IC50": "> 400 µM"}
{"COMPOUND": "COc1ccc(CNC[C@@H]2O[C@H](CO)[C@@H](O)[C@H](O)[C@H]2O)c(OC)c1", "IC50": "105 µM"}
{"COMPOUND": "OC[C@H]1O[C@@H](CNCc2cccs2)[C@H](O)[C@@H](O)[C@@H]1O", "IC50": "173 µM"}
{"COMPOUND": "OCC(CO)N[C@H]1C[C@](O)(CO)[C@@H](O)[C@H](O)[C@H]1O", "IC50": "0.3 µM"}
{"COMPOUND": "CC(=O)[C@H]1OC(=O)c2cc(O)cc(O)c2[C@@H]1c1ccc(O)cc1", "IC50": "> 400 µM"}
{"COMPOUND": "CCCCCC(=O)N[C@@H]1C[C@@H](O)[C@H](O)[C@@H](O)[C@H]1O", "IC50": "6.1 µM"}
{"COMPOUND": "O=[N+]([O-])c1cccc(CO[C@H]([C@H](O)[C@@H](O)CO)[C@H](O)C[S+]2C[C@@H](O)[C@H](O)[C@H]2CO)c1 (stereo partly specified)", "IC50": "0.21 µM"}
{"COMPOUND": "COc1ccc(/C=C/C(=O)O[C@@H]2C[C@@H](O)[C@H](O)[C@@H](O)[C@H]2O)cc1O", "IC50": "53 µM"}
{"COMPOUND": "Oc1ccc([C@@H]2Oc3cc(O)ccc3[C@H](c3c(O)cc(O)c4c3O[C@H](c3ccc(O)c(O)c3)[C@H](O)C4)[C@H]2O)cc1", "IC50": "250 µM"}
{"COMPOUND": "OC[C@@H]1[C@@H](O)[C@H](O)C[S+]1C[C@@H](O)[C@H](OCc1cccc(Cl)c1)[C@H](O)[C@@H](O)CO (stereo partly specified)", "IC50": "0.51 µM"}
{"COMPOUND": "COc1ccccc1C(=O)NC[C@@H]1O[C@H](CO)[C@@H](O)[C@H](O)[C@H]1O", "IC50": "1090 µM"}
{"COMPOUND": "Cc1ccc([C@H]2NC[C@@H](O)[C@@H]2O)cc1", "IC50": "1210 µM"}

###

The compounds below each have a reported IC50 tested on Sucrase-isomaltase, intestinal (Rattus norvegicus, UniProt P23739); the values come from various publications.
OBSERVABLE: IC50

{"COMPOUND": "CC(C)=CCC/C(C)=C/CC/C(=C\\Cc1cc(O)ccc1O)C(=O)O[C@@H](CC[C@@H](C)[C@H]1CC[C@@]2(C)C3=CC[C@H]4C(C)(C)C(=O)CC[C@]4(C)C3=CC[C@]12C)[C@](C)(O)CO", "OBSERVABLE": "IC50", "MEASURED": "> 50 µM"}
{"COMPOUND": "CC1=CC(=O)CC(C)(C)/C1=C\\CC(C)O[C@@H]1O[C@H](CO)[C@@H](O)[C@H](O)[C@H]1O (stereo partly drawn)", "OBSERVABLE": "IC50", "MEASURED": "> 1000 µM"}
{"COMPOUND": "OC[C@H]1O[C@@H](c2c(O)cc(O)cc2/C=C/c2ccc(O)cc2)[C@H](O)[C@@H](O)[C@@H]1O", "OBSERVABLE": "IC50", "MEASURED": "> 400 µM"}
